Experimental system: Bromodomain-containing protein 2 (Homo sapiens)
Measurement description: Inhibition of human BRD2 bromodomain 2 expressed in bacterial expression system
Readout: Ki (nM)
Expressed in nM, but write only the number.

IN: # get_value(readout='Ki', item= COc1nnc2ccc(N3CCC(c4ccc(OCCN5CCN(C)C(=O)[C@H]5C)cc4)CC3)nn12 )
OUT: 251

----------
Experimental system: Bromodomain-containing protein 2 (Homo sapiens, UniProt P25440)
Sequence (P25440 whole entry): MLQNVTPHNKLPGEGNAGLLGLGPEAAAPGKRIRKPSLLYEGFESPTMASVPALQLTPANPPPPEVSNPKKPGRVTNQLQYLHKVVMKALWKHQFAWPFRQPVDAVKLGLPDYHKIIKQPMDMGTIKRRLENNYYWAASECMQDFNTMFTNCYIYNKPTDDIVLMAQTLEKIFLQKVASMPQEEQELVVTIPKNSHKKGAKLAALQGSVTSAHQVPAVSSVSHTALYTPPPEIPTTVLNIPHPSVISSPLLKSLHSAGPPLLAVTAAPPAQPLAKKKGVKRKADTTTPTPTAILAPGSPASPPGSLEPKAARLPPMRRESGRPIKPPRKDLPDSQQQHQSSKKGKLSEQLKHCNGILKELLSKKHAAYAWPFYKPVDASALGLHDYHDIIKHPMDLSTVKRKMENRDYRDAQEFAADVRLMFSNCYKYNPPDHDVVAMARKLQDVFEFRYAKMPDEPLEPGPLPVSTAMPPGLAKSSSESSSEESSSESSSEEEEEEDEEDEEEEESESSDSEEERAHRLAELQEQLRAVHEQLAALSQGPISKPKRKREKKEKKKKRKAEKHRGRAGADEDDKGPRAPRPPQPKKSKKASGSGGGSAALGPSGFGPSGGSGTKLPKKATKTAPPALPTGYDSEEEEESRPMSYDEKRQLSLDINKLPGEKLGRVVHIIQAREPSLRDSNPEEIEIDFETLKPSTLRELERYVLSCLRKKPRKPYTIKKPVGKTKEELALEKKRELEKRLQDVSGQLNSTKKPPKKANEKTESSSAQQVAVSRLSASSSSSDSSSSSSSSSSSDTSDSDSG
Measurement description: Inhibition of human BRD2 bromodomain 1 expressed in bacterial expression system
Readout: Ki (nM)
Expressed in nM, but write only the number.

IN: # get_value(readout='Ki', item= COc1nnc2ccc(N3CCC(c4ccc(OCCN5CCN(C)C(=O)[C@H]5C)cc4)CC3)nn12 [AZD-5153] )
OUT: 100

----------
Measurement description: Oral bioavailability in dog
Assay type: ADME, organism-based, Canis lupus familiaris
Experimental conditions: in vivo
Readout: bioavailability (%)
Expressed in %, but write only the number.

Here's what some known entries look like.
COc1nnc2ccc(N3CCC(c4ccc(OCCN5CCN(C)C(=O)[C@H]5C)cc4)CC3)nn12: 55
COc1nnc2ccc(N3CCC(c4ccc(CCN5CCN(C)C(=O)[C@H]5C)cc4)CC3)nn12: 98
COc1nnc2ccc(N3CCC(c4ccc(N5CC(CN6CCN(C)C(=O)[C@H]6C)C5)cc4)CC3)nn12: 73

Next item in the queue.
IN: # get_value(readout='bioavailability', item= COc1nnc2ccc(N3CCC(c4ccc(OCCN5[C@H](C)CN(C(C)=O)C[C@@H]5C)cc4)CC3)nn12 )
OUT: 28

----------
Catalogue of compounds with associated hepatocyte CLint
Measurement description: Intrinsic clearance in dog hepatocytes assessed per million cells
Format: ADME, cell-based, Canis lupus familiaris, Hepatocyte
Experimental conditions: read-out: CLH
Expressed in µL/min/1e6 cells, but write only the number.

Here's what some known entries look like.
C[C@@H]1C(=O)N(C)CCN1CCOc1ccc(C2CCN(c3ccc4nnc(N(C)C)n4n3)CC2)cc1: 18
COc1nnc2ccc(N3CCC(c4ccc(OCCN5[C@H](C)CN(C(C)=O)C[C@@H]5C)cc4)CC3)nn12: 7

IN: # get_value(readout='hepatocyte CLint', item= COc1nnc2ccc(N3CCC(c4ccc(N5CC(CN6CCN(C)C(=O)[C@H]6C)C5)cc4)CC3)nn12 )
OUT: 3

----------
Catalogue of compounds with associated fraction unbound
Measurement description: Unbound fraction in rat plasma
Format: ADME, cell-free
Form rule: numeric answer, no unit written next to it.

Here's what some known entries look like.
COc1nnc2ccc(N3CCC(c4ccc(OCCN5CCN(C)C(=O)[C@H]5C)cc4)CC3)nn12: 0.04
COc1nnc2ccc(N3CCC(c4ccc(CCN5CCN(C)C(=O)[C@H]5C)cc4)CC3)nn12: 0.02
C[C@@H]1C(=O)N(C)CCN1CCOc1ccc(C2CCN(c3ccc4nnc(N(C)C)n4n3)CC2)cc1: 0.04
COc1nnc2ccc(N3CCC(c4ccc(N5CC(CN6CCN(C)C(=O)[C@H]6C)C5)cc4)CC3)nn12: 0.05

Next item in the queue.
IN: # get_value(readout='fraction unbound', item= COc1nnc2ccc(N3CCC(c4ccc(OCCN5[C@H](C)CN(C(C)=O)C[C@@H]5C)cc4)CC3)nn12 )
OUT: 0.06

----------
Measurement description: Plasma clearance in rat
Type: ADME
Catalogue of compounds with associated clearance
Expressed in mL/min/kg, but write only the number.

Here's what some known entries look like.
C[C@@H]1C(=O)N(C)CCN1CCOc1ccc(C2CCN(c3ccc4nnc(N(C)C)n4n3)CC2)cc1: 6
COc1nnc2ccc(N3CCC(c4ccc(CCN5CCN(C)C(=O)[C@H]5C)cc4)CC3)nn12: 3
COc1nnc2ccc(N3CCC(c4ccc(OCCN5[C@H](C)CN(C(C)=O)C[C@@H]5C)cc4)CC3)nn12: 17

IN: # get_value(readout='clearance', item= COc1nnc2ccc(N3CCC(c4ccc(N5CC(CN6CCN(C)C(=O)[C@H]6C)C5)cc4)CC3)nn12 )
OUT: 7

IN: # get_value(readout='clearance', item= COc1nnc2ccc(N3CCC(c4ccc(OCCN5CCN(C)C(=O)[C@H]5C)cc4)CC3)nn12 )
OUT: 4

----------
Experimental system: Bromodomain-containing protein 4 (Homo sapiens, UniProt O60885)
Measurement description: Inhibition of human BRD4 bromodomain 2 expressed in bacterial expression system
Readout: pKi
Entry type: numeric. Quantity: pKi, the -log10 of concentration in molar units.

IN: # get_value(readout='pKi', item= COc1nnc2ccc(N3CCC(c4ccc(OCCN5CCN(C)C(=O)[C@H]5C)cc4)CC3)nn12 )
OUT: 6.90

----------
Experimental system: Bromodomain-containing protein 4 (Homo sapiens)
Measurement description: Inhibition of BRD4 in human MCF7 cells assessed as down regulation of ERalpha after 18 to 24 hrs by Hoechst staining based cellomics arrayscan analysis
Format: cell-based
Readout: pIC50
Entry type: numeric. Quantity: pIC50, the -log10 of concentration in molar units.

COc1nnc2ccc(N3CCC(c4ccc(N5CC(N6CCN(C)C(=O)[C@H]6C)C5)cc4)CC3)nn12: 6.10

IN: # get_value(readout='pIC50', item= C[C@@H]1C(=O)N(C)CCN1CCOc1ccc(C2CCN(c3ccc4nnc(N(C)C)n4n3)CC2)cc1 )
OUT: 7.20

----------
Measurement description: Apparent permeability from apical to basolateral side in human Caco2 cells
Assay type: ADME, cell-based
Experimental conditions: Caco-2
Readout: Papp A→B
Provide the measurement as a number trailed by its unit.

Here's what some known entries look like.
COc1nnc2ccc(N3CCC(c4ccc(N5CC(CN6CCN(C)C(=O)[C@H]6C)C5)cc4)CC3)nn12: 46 ×10⁻⁶ cm/s
COc1nnc2ccc(N3CCC(c4ccc(OCCN5[C@H](C)CN(C(C)=O)C[C@@H]5C)cc4)CC3)nn12: 30 ×10⁻⁶ cm/s
COc1nnc2ccc(N3CCC(c4ccc(OCCN5CCN(C)C(=O)[C@H]5C)cc4)CC3)nn12 [AZD-5153]: 40 ×10⁻⁶ cm/s

IN: # get_value(readout='Papp A→B', item= COc1nnc2ccc(N3CCC(c4ccc(CCN5CCN(C)C(=O)[C@H]5C)cc4)CC3)nn12 )
OUT: 28 ×10⁻⁶ cm/s

----------
Experimental system: Bromodomain-containing protein 9 (Homo sapiens, UniProt Q9H8M2)
Sequence (Q9H8M2 whole entry): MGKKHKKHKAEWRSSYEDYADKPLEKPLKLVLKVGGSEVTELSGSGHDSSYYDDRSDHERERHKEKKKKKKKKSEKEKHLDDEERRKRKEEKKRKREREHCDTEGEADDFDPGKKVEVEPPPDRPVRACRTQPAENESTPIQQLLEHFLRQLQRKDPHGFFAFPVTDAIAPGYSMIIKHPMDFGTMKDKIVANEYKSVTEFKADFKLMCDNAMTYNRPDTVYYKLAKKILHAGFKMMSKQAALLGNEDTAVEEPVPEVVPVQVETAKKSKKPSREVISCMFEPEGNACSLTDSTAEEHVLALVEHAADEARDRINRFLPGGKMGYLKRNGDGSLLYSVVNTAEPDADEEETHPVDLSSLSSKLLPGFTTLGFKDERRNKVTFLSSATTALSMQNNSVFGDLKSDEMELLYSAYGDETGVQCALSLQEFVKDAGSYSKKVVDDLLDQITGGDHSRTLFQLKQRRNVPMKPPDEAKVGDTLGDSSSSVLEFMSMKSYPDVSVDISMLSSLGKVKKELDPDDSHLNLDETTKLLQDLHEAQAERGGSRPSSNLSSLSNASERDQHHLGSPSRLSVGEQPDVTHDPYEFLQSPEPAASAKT
Measurement description: Inhibition of human BRD9 expressed in bacterial expression system
Readout: pKi
Entry type: numeric. Quantity: pKi, the -log10 of concentration in molar units.

IN: # get_value(readout='pKi', item= COc1nnc2ccc(N3CCC(c4ccc(OCCN5CCN(C)C(=O)[C@H]5C)cc4)CC3)nn12 )
OUT: 5.60

----------
Measurement description: Thermodynamic solubility of compound in pH 7.4 solution
Type: physicochemical
Experimental conditions: buffer, read-out: Therm_solubility
Catalogue of compounds with associated solubility thermodynamic
Expressed in µM, but write only the number.

Here's what some known entries look like.
COc1nnc2ccc(N3CCC(c4ccc(N5CC(N6CCN(C)C(=O)[C@H]6C)C5)cc4)CC3)nn12: 870
C[C@@H]1C(=O)N(C)CCN1CCOc1ccc(C2CCN(c3ccc4nnc(C(F)(F)F)n4n3)CC2)cc1: 63
COc1nnc2ccc(N3CCC(c4ccc(OCCN5[C@H](C)CN(C)C(=O)[C@H]5C)cc4)CC3)nn12: 750

IN: # get_value(readout='solubility thermodynamic', item= COc1nnc2ccc(N3CCC(c4ccc(OCCCCN5CCN(C)C(=O)[C@H]5C)cc4)CC3)nn12 )
OUT: 470

----------
Measurement description: Intrinsic clearance in human hepatocytes assessed per million cells
Assay type: ADME, cell-based, Hepatocyte
Experimental conditions: read-out: CLH
Catalogue of molecules with associated hepatocyte CLint

COc1nnc2ccc(N3CCC(c4ccc(N5CC(N6CCN(C)C(=O)[C@H]6C)C5)cc4)CC3)nn12: < 1.2 µL/min/1e6 cells
COc1nnc2ccc(N3CCC(c4ccc(CCN5CCN(C)C(=O)[C@H]5C)cc4)CC3)nn12: 2 to 2.2 µL/min/1e6 cells
COc1nnc2ccc(N3CCC(c4ccc(OCCN5CCN(C)C(=O)[C@H]5C)cc4)CC3)nn12: 3.5 to 4 µL/min/1e6 cells
C[C@@H]1C(=O)N(C)CCN1CCOc1ccc(C2CCN(c3ccc4nnc(N(C)C)n4n3)CC2)cc1: 4 to 4.4 µL/min/1e6 cells
COc1nnc2ccc(N3CCC(c4ccc(OCCN5CCN(C)C(=O)[C@@H]5C)cc4)CC3)nn12: < 1.4 µL/min/1e6 cells

Next item in the queue.
IN: # get_value(readout='hepatocyte CLint', item= COc1nnc2ccc(N3CCC(c4ccc(N5CC(CN6CCN(C)C(=O)[C@H]6C)C5)cc4)CC3)nn12 )
OUT: 4 to 4.1 µL/min/1e6 cells

Values from ChEMBL document CHEMBL4431353
